testSystem: T1, human GLP-1 receptor (human, UniProt P43220 24-463)
T1 construct: whole, on cells; also called hGLP-1R; human glucagon-like peptide-1 receptor
testSummary: SPA competition vs [125I]-GLP-1, hGLP-1R membranes
# Ki values compiled below

binder	Ki [nM]
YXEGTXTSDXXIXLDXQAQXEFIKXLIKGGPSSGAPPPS (Aib2, αMeF(2F)6, 4Pal10, Aib11, αMeL13, Orn16, Aib20, K24(Z1), αMeY25, K28(Z1), C-term NH2; Z1=AEEA2-(γ-Glu)-CO-(CH2)12-CO2H)	1.33
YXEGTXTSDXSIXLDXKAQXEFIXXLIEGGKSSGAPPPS (Aib2, αMeF(2F)6, 4Pal10, αMeL13, Orn16, K17(Z1), Aib20, D-Glu24, αMeY25, K31(Z1), C-term NH2; Z1=(εK)-(εK)-(γ-Glu)-CO-(CH2)12-CO2H)	1.6
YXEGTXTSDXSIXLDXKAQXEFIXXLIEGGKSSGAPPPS (Aib2, αMeF(2F)6, 4Pal10, αMeL13, Orn16, K17(Z1), Aib20, D-Glu24, αMeY25, K31(Z1), C-term NH2; Z1=AEEA-(γ-Glu)-CO-(CH2)14-CH3)	0.691
